Reported values of IC50 for individual entries
Tested on: H929 multiple myeloma tumour line
Assay: In vitro cytotoxicity, Microculture Tetrazolium Assay
Assay type: cell-based
Conditions: Homo sapiens, NCI-H929, 48 h, H929 cells, 48 hours exposure, MTT; read-out: IC50 (μM) MTT H929
# number only, unit µM dropped from output

Before answering, review these 5 worked examples.
COMPOUND	TARGET OR TEST SYSTEM	IC50, µM
CCCCc1nccc(COc2ccccc2CC(Oc2ncnc3sc(-c4ccc(F)cc4)c(-c4ccc(OCCN5CCN(C)CC5)c(Cl)c4C)c23)C(=O)O)n1 (stereo not drawn)	H929 multiple myeloma tumour line	0.012
Cc1c(-c2c(-c3ccc(F)cc3)sc3ncnc(OC(Cc4ccccc4OCc4ccnn4CCC(C)C)C(=O)O)c23)ccc(OCCN2CCN(C)CC2)c1Cl (stereo not drawn)	H929 multiple myeloma tumour line	0.078
CCCCn1nncc1COc1ccccc1CC(Oc1ncnc2sc(-c3ccc(F)cc3)c(-c3ccc(OCCN4CCN(C)CC4)c(Cl)c3C)c12)C(=O)O (stereo not drawn)	H929 multiple myeloma tumour line	0.022
Cc1c(-c2c(-c3ccc(F)cc3)sc3ncnc(OC(Cc4ccccc4OCC4CCCO4)C(=O)O)c23)ccc(OCCN(C)C)c1Cl (stereo not drawn)	H929 multiple myeloma tumour line	0.7
Cc1c(-c2c(-c3ccc(Cl)o3)sc3ncnc(OC(Cc4ccccc4OCC4CCCO4)C(=O)O)c23)ccc(OCCN2CCN(C)CC2)c1Cl (stereo not drawn)	H929 multiple myeloma tumour line	0.052

Consider the additional compound presented here.
INPUT: Output measured IC50 for this item: Cc1c(-c2c(-c3ccco3)sc3ncnc(OC(Cc4ccccc4OCc4nccn4C)C(=O)O)c23)ccc(OCCN2CCN(C)CC2)c1Cl (stereo not drawn)
OUTPUT: 0.667

* * *

Reported values of IC50 for individual entries
Target: Mcl-1 protein (UniProtKB primary accession number: Q07820) (Homo sapiens, UniProt Q07820)
Sequence (Q07820 whole entry): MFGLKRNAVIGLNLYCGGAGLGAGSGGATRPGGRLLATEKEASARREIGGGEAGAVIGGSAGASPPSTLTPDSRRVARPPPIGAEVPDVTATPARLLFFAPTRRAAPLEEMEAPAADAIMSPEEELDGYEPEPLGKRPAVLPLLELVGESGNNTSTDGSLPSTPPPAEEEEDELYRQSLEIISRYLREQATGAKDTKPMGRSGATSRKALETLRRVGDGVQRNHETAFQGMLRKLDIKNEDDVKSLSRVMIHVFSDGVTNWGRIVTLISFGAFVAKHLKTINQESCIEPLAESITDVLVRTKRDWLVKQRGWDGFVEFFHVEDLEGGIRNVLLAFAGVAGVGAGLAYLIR
Assay: Inhibition of Mcl-1 by fluorescence polarisation, Method 1
Type: binding
Conditions: fluorescence polarisation test; Method 2 values are underlined in the patent (underlining not visible here); read-out: IC50 (M) Mcl-1 FP
# number only, unit M dropped from output

Before answering, review these 5 worked examples.
COMPOUND	TARGET OR TEST SYSTEM	IC50, M
COc1ccccc1C[C@@H](Oc1ncnc2sc(-c3ccco3)c(-c3ccc(OCCN4CCN(C)CC4)c(F)c3C)c12)C(=O)O (single isomer, unassigned) [Example 334]	Mcl-1 protein (UniProtKB primary accession number: Q07820) (Homo sapiens, UniProt Q07820)	1.4e-08
COCCCn1nncc1COc1ccccc1CC(Oc1ncnc2sc(-c3ccc(F)cc3)c(-c3ccc(OCCN4CCN(C)CC4)c(Cl)c3C)c12)C(=O)O (stereo not drawn) [Example 96]	Mcl-1 protein (UniProtKB primary accession number: Q07820) (Homo sapiens, UniProt Q07820)	3.8e-09
Cc1c(-c2c(-c3ccco3)sc3ncnc(O[C@H](Cc4ccccc4OCc4ccnc(N)n4)C(=O)O)c23)ccc(OCCN2CCN(C)CC2)c1Cl [Example 250]	Mcl-1 protein (UniProtKB primary accession number: Q07820) (Homo sapiens, UniProt Q07820)	3.6e-09
Cc1cc(-c2nccc(COc3ccccc3CC(Oc3ncnc4sc(-c5ccc(F)cc5)c(-c5ccc(OCCN6CCN(C)CC6)c(Cl)c5C)c34)C(=O)O)n2)ccn1 (stereo not drawn) [Example 118]	Mcl-1 protein (UniProtKB primary accession number: Q07820) (Homo sapiens, UniProt Q07820)	5.5e-09
CCn1nccc1COc1ccccc1CC(Oc1ncnc2sc(-c3ccc(F)o3)c(-c3ccc(OCCN(C)C)c(Cl)c3C)c12)C(=O)O (stereo not drawn) [Example 204]	Mcl-1 protein (UniProtKB primary accession number: Q07820) (Homo sapiens, UniProt Q07820)	4.9e-09

INPUT: Output measured IC50 for this item: COc1ccccc1CC(Oc1ncnc2sc(-c3ccc(F)o3)c(-c3ccc(OCCN4CCN(C)CC4)c(Cl)c3C)c12)C(=O)O (stereo not drawn) [Example 149]
OUTPUT: 1.2e-08

INPUT: Output measured IC50 for this item: CCCCn1nccc1COc1ccccc1CC(Oc1ncnc2sc(-c3ccc(F)cc3)c(-c3ccc(OCCN4CCN(C)CC4)c(Cl)c3C)c12)C(=O)O (stereo not drawn) [Example 83]
OUTPUT: 5.1e-09

INPUT: Output measured IC50 for this item: COc1cc(F)ccc1CC(Oc1ncnc2sc(-c3ccco3)c(-c3ccc(OCCN4CCN(C)CC4)c(Cl)c3C)c12)C(=O)O (stereo not drawn) [Example 346]
OUTPUT: 1.7e-08

INPUT: Output measured IC50 for this item: COCCc1nccc(COc2ccccc2CC(Oc2ncnc3sc(-c4ccc(F)cc4)c(-c4ccc(OCCN5CCN(C)CC5)c(Cl)c4C)c23)C(=O)O)n1 (stereo not drawn) [Example 44]
OUTPUT: 4.8e-09

INPUT: Output measured IC50 for this item: Cc1cnccc1-c1nccc(COc2ccccc2CC(Oc2ncnc3sc(-c4ccc(F)o4)c(-c4ccc(OCCN5CCN(C)CC5)c(Cl)c4C)c23)C(=O)O)n1 (stereo not drawn) [Example 198]
OUTPUT: 7.7e-09

INPUT: Output measured IC50 for this item: CCc1sc2ncnc(OC(Cc3ccccc3)C(=O)O)c2c1-c1ccc(OCC(=O)N2CCN(C)CC2)c(Cl)c1C (stereo not drawn) [Example 392]
OUTPUT: 3e-08

INPUT: Output measured IC50 for this item: Cc1cc(COc2ccccc2CC(Oc2ncnc3sc(-c4ccc(F)cc4)c(-c4ccc(OCCN5CCN(C)CC5)c(Cl)c4C)c23)C(=O)O)no1 (stereo not drawn) [Example 9]
OUTPUT: 9.3e-09

* * *

Target: Mcl-1 protein (UniProtKB primary accession number: Q07820) (Homo sapiens, UniProt Q07820)
Experiment: Inhibition of Mcl-1 by fluorescence polarisation, Method 1
Assay type: binding
Conditions: fluorescence polarisation; Method 1, or Method 2; read-out: IC50 (M) Mcl-1 FP
Reported values of IC50 for individual entries
# number only, unit M dropped from output

Before answering, review these 3 worked examples.
COMPOUND	IC50 / M
COc1ccccc1CC(Oc1ncnc2sc(-c3ccc(F)c(OCC(F)(F)F)c3)c(-c3ccc(OCCN4CCN(C)CC4)c(Cl)c3C)c12)C(=O)O (stereo not shown)	1.3e-07
Cc1nc(-c2sc3ncnc(OC(Cc4ccccc4)C(=O)O)c3c2-c2ccc(OCCN3CCN(C)CC3)c(Cl)c2C)cs1 (stereo not shown)	8.4e-08
CCc1sc2ncnc(OC(Cc3ccccc3)C(=O)O)c2c1-c1ccc(OCCOCCOC)c(Cl)c1C (stereo not shown)	9.6e-09

INPUT: Output measured IC50 for this item: COc1ccccc1CC(Oc1ncnc2sc(-c3csc(Cl)c3)c(-c3ccc(OCCN4CCN(C)CC4)c(Cl)c3C)c12)C(=O)O (stereo not shown)
OUTPUT: 2e-08

INPUT: Output measured IC50 for this item: CCN(CC)CCOc1ccc(-c2c(-c3ccc(F)cc3)sc3ncnc(OC(Cc4ccccc4OCc4ccnc(-c5ccccc5F)n4)C(=O)O)c23)c(C)c1Cl (stereo not shown)
OUTPUT: 3.5e-09

INPUT: Output measured IC50 for this item: COc1ccccc1-c1nccc(COc2ccccc2CC(Oc2ncnc3sc(-c4ccc(F)cc4)c(-c4ccc(OCCN5CCN(C)CC5)c(Cl)c4Cl)c23)C(=O)O)n1 (stereo not shown)
OUTPUT: 9.48e-10

INPUT: Output measured IC50 for this item: CCc1sc2ncnc(OC(Cc3ccccc3OC)C(=O)O)c2c1-c1ccc(O)c(Cl)c1C (single isomer, unassigned)
OUTPUT: 6.7e-09

INPUT: Output measured IC50 for this item: CC#Cc1sc2ncnc(OC(Cc3cccc4occc34)C(=O)O)c2c1-c1ccc(OCCN2CCN(C)CC2)c(Cl)c1C (stereo not shown)
OUTPUT: 9e-08

INPUT: Output measured IC50 for this item: COc1ccccc1CC(Oc1ncnc2sc(-c3ccc(F)cc3)c(-c3ccc(OCCN4CCN(C)CC4)c(Cl)c3C)c12)C(=O)OCC(F)(F)F (stereo not shown)
OUTPUT: 9.6e-07

INPUT: Output measured IC50 for this item: CCc1sc2ncnc(O[C@H](Cc3ccccc3OC)C(=O)O)c2c1-c1ccc(O)c(Cl)c1C (single isomer, unassigned)
OUTPUT: 5.1e-07

INPUT: Output measured IC50 for this item: CC#Cc1sc2ncnc(OC(Cc3ccccc3OC)C(=O)O)c2c1-c1ccc(OCCN2CCN(C)CC2)c(F)c1C (stereo not shown)
OUTPUT: 2.9e-08

INPUT: Output measured IC50 for this item: COc1ccccc1CC(Oc1ncnc2sc(-c3ccc(F)c(C(F)(F)F)c3)c(-c3ccc(OCCN4CCN(C)CC4)c(Cl)c3C)c12)C(=O)O (stereo not shown)
OUTPUT: 3.5e-09

INPUT: Output measured IC50 for this item: Cc1c(-c2c(-c3ccco3)sc3ncnc(OC(Cc4ccccc4)C(=O)O)c23)ccc(OCCN2CCN(C)CC2)c1Cl (stereo not shown)
OUTPUT: 2.9e-08

Every entry's value here was drawn from patent US9670227B2.
